measured.target: T1, human LILRB1 expressed on cells (human, UniProt Q8NHL6 24-650)
T1 construct: In 293T cells it was expressed from pCMV3-LILRB1-GFP; also called CHO-LILRB1; Jurkat-LILRB1
T1 sequence (Q8NHL6 other isoform, or with tags, fused parts or gaps limits assumed): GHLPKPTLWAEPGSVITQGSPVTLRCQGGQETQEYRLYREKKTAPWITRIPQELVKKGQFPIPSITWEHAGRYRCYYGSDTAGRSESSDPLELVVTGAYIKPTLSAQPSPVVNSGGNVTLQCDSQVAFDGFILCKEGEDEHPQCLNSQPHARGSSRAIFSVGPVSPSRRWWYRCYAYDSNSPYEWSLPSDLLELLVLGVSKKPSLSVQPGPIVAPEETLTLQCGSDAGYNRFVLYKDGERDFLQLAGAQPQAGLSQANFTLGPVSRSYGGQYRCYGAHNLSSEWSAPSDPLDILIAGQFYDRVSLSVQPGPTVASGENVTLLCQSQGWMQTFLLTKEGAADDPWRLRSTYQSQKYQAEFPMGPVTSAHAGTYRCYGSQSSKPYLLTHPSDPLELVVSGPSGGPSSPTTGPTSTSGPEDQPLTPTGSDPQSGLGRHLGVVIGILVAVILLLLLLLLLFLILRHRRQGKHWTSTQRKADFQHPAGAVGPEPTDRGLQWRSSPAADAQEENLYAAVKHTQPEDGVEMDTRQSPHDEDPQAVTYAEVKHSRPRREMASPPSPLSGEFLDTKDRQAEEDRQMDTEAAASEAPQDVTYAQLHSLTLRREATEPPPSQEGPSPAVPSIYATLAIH
test.method.notes: flow cytometry, CHO-LILRB1 cells
gMFI (max) under 30000 gets yes (1), anything at or over 30000 gets no (0).

binder="#1 (antibody, human IgG1, V domains shown, also called D2M002-001) VH: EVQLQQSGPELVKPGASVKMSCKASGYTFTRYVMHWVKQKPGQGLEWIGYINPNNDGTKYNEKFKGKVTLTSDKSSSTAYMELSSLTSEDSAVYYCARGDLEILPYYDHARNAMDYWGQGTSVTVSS VL: DIVMTQSPASQSASLGESVIITCRASGNIHNYLAWYQQKQGKSPQLLVYNAKTLADGVPSRFSGSGSGTQYSLKINSLQPEDFGTYYCQHFWSSPPTFGGGTKLELK" discrete_label="yes (1)"
binder="#22 (antibody, human IgG1, V domains shown, also called D2M002-022) VH: QVQLQQSGAELMKPGASVKISCKATGYTLSSYWIEWVKQRPGHGLEWIGEILPGSGSTNYNEKFKGKATFTADTSSNTAYMQLSSLTSEDSAVYYCARSGAGGYDSGAFAYWGQGTLVTVSA VL: DIVLTQSPASLAVSLGQRATISCRASESVDTYGNSFMHWYQQKPGQPPKLLIYRTSNLESGIPARFSGSGSRTDFTLTINPVEADDVATYYCQQSNEDPWTFGGGTKLEIK" discrete_label="no (0)"
binder="#27 (antibody, human IgG1, V domains shown, also called D2M002-027) VH: EVQLQQSGAELMKPGASVKISCKITGYTFSSYWIEWVKQRPGHDLEWIGEILPGSGSTNYNEKFKGKASFTADTSSNTAYMQLNSLTSEDSAVYYCARSGAGGYDSGAFAYWGQGTLVTVSA VL: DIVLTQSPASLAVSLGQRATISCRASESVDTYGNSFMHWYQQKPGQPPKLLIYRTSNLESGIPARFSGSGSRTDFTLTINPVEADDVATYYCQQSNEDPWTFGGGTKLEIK" discrete_label="no (0)"
binder="Anti-LILRB1 antibody 3C1 (antibody, human IgG4 S228P, lambda, V domains shown) VH: EVQLVESGGGLVQPGGSLRLSCAASGFTFSDYDMHWVRQATGKGLEWVATIDTAGDTYYPDSVRGRFTISRENAKNSLSLQMNSLRAGDTAVYFCARDVPGTGFDHWGQGTLVTVSS VL: SSELTQDPAVSVALGQTVRITCQGDSLRSYYESWYQQKPGQAPVLVIYGKNNRPSGIPDRFSGSISGNTASLTITGTQAEDEADYYCNSRDNSGDHWVFGGGTRLTVLG" discrete_label="yes (1)"
binder="#21 (antibody, human IgG1, V domains shown, also called D2M002-021) VH: QVQLQQSGAELMKPGASVKISCKATGSTFSSYWIEWVKQRPGHGLEWIGEILPGSGSTNYNEKFKGKATFTADTSSNTAYMQLSSLTSEDSAVYYCARSGAGGYDSGAFAYWGQGTLVTVSA VL: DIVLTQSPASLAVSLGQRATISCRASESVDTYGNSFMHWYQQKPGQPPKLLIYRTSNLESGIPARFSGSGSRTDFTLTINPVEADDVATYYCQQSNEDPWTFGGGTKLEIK" discrete_label="no (0)"
